# Target Of Assay: T1, human Protein S (human, UniProt P07225 42-676)
# T1 construct: also called ProS; ProS1
# T1 sequence: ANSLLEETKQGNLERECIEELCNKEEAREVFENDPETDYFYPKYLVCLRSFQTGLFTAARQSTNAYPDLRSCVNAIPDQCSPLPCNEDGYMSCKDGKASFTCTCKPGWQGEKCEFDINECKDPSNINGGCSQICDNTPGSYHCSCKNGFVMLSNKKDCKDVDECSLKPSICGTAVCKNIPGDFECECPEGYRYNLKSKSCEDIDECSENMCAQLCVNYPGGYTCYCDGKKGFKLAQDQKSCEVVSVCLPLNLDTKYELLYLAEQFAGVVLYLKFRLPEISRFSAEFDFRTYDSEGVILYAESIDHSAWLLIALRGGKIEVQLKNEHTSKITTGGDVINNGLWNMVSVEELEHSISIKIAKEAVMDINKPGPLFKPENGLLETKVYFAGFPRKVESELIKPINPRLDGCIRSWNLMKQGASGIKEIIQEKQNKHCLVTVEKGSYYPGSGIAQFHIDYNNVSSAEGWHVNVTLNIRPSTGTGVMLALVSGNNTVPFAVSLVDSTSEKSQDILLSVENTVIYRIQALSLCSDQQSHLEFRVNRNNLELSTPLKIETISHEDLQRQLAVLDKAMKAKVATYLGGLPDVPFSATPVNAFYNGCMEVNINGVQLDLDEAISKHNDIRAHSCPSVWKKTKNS
# Experimental Protocol: ELISA; plate coated with human Protein S; 1 µg/ml antibody; 1 mM calcium chloride
Measurement Type: Binding to Protein S in CaCl2 (OD)

- Antibody 23 (antibody, V domains shown, Human variable region with rat Fc) VH: QVQLVQSGAEVKKPGASVKVSCKSSGHTFTGYYMHWVRQAPGQGLEWMGWINPNSGDTNYAQKFQGRVTMTRDTSISTAYMEMSRLRSDDTAVYYCARDSQILWFGELGYWGQGTLVTVSS VL: QAVVTQESALTTSPGETVTLTCRSSTGAVTASNYANWVQEKPDHLFTGLIGSTNNRAPGVPARFSGSLIGDKAALTITGAQTEDEAIYFCALWYSDHFVFGGGTKLTVL: 0.57
